targetDesc: KIT exon11 deletion (557-558) and secondary mutation V654A (Homo sapiens, UniProt P10721, DEL557-558/V654A)
Construct: expressed in transfected cells; host or cells: Ba/F3 cells infected with lentivirus (pLVX-IRES Puro vector)
Sequence (P10721 with tags, fused parts or gaps DEL557-558/V654A): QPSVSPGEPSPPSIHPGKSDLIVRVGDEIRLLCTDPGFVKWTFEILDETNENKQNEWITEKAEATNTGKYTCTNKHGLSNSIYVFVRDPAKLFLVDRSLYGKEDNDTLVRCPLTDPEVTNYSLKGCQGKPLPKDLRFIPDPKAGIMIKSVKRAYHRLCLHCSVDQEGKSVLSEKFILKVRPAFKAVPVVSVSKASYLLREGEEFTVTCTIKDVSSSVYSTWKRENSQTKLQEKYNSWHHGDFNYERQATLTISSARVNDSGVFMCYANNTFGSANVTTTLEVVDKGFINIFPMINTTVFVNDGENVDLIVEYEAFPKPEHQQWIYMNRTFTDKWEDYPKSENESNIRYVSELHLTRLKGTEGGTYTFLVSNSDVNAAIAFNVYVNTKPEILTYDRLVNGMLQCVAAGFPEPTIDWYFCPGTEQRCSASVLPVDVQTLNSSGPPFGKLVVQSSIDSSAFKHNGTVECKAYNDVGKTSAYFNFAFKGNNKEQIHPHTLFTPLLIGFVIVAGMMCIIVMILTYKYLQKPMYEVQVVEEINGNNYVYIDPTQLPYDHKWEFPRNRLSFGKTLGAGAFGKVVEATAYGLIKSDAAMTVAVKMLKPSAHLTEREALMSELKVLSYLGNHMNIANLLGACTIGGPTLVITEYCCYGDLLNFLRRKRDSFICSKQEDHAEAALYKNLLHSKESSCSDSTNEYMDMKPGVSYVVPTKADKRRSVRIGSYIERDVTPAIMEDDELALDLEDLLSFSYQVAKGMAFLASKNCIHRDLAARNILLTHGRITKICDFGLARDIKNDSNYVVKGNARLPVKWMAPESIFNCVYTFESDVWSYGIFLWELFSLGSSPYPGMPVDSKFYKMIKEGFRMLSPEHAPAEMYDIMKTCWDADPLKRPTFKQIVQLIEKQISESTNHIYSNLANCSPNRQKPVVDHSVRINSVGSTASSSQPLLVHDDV
procedureText: MTS viability assay, Ba/F3 expressing KIT exon11 deletion (557-558) and V654A
Type: cell-based
conditions: 72 h, KIT exon11 deletion (557-558) plus secondary mutation, mean of at least 3 biological replicates
I would appreciate it if you labelled entries TRUE when Ba/F3-V654A GI50 is 0.02 µM or higher, otherwise FALSE.

Past entries and their recorded results:
>>> print(df.to_string())
                                   compound  label
0  COc1cc(Oc2ncnc3cc(OC)c(OC)cc23)ccc1NC(=O)Cn1cc(C(C)C)nn1 [Example 3]  FALSE
1  COc1cc2ncnc(Oc3ccc(NC(=O)Cn4cc(C(C)C)nn4)cc3F)c2cc1OC [Example 4]  FALSE
2  COc1cc2c(Oc3ccc(NC(=O)Cn4cc(C(C)C)nn4)cc3)ncnc2cc1OCCN1CCCC1 [Example 6]   TRUE

q: Assess whether reported Ba/F3-V654A GI50 for COc1cc2ncnc(Oc3ccc(NC(=O)Cn4cc(C5CC5)nn4)cc3)c2cc1OC [Example 2] sits at 0.02 µM or higher.
a: FALSE

q: Assess whether reported Ba/F3-V654A GI50 for COc1cc2c(Oc3ccc(NC(=O)Cn4cc(C(C)C)nn4)cc3)ncnc2cc1OC(C)C [Example 11] sits at 0.02 µM or higher.
a: FALSE

q: Assess whether reported Ba/F3-V654A GI50 for COc1cc2c(Oc3ccc(NC(=O)Cn4cc(C(C)C)nn4)cc3)ncnc2cc1OC1COC1 [Example 10] sits at 0.02 µM or higher.
a: FALSE

q: Assess whether reported Ba/F3-V654A GI50 for COc1cc2c(Oc3ccc(NC(=O)Cn4cc(C(C)C)nn4)cc3)ncnc2cc1O[C@H]1CCOC1 (single isomer, unassigned) [Example 13] sits at 0.02 µM or higher.
a: FALSE

q: Assess whether reported Ba/F3-V654A GI50 for COc1cc2c(Oc3ccc(NC(=O)Cn4cc(C(C)C)nn4)cc3)ncnc2cc1OCCO [Example 8] sits at 0.02 µM or higher.
a: TRUE

* * *

targetDesc: KIT exon11 deletion (557-558) and secondary mutation V654A (Homo sapiens, UniProt P10721, DEL557-558/V654A)
Construct: expressed in transfected cells; host or cells: Ba/F3 cells infected with lentivirus (pLVX-IRES Puro vector)
procedureText: MTS viability assay, Ba/F3 expressing KIT exon11 deletion (557-558) and V654A
Format: cell-based
conditions: 72 h, KIT exon11 deletion (557-558) plus secondary mutation, mean of at least 3 biological replicates
# Ba/F3-V654A GI50 listing for each entry below
Please state the figure in nM; there is no need to write the unit.

Answered cases to consult:
>>> df
                                   molecule  measuredresult
0  COc1cc2c(Oc3ccc(NC(=O)Cn4cc(C(C)C)nn4)cc3)ncnc2cc1OC1CCOCC1              17
1  COc1cc2ncnc(Oc3ccc(NC(=O)Cn4cc(C(C)C)nn4)cc3)c2cc1OC               3
2  COCCOc1cc2ncnc(Oc3ccc(NC(=O)Cn4cc(C(C)C)nn4)cc3)c2cc1OC               8
3  COc1cc2c(Oc3ccc(NC(=O)Cn4cc(C(C)C)nn4)cc3)ncnc2cc1OCCN(C)C              15

# evaluate next
q: Request the reported Ba/F3-V654A GI50 associated with COc1cc2c(Oc3ccc(NC(=O)Cn4cc(C(C)C)nn4)cc3)ncnc2cc1O[C@@H]1CCOC1 (single isomer, unassigned)
a: 11
